# STUDY_SYSTEM: AOC1 (Homo sapiens)
# Construct: purchased R&D Systems 8297-AO-010
# Sequence (P19801 20-751): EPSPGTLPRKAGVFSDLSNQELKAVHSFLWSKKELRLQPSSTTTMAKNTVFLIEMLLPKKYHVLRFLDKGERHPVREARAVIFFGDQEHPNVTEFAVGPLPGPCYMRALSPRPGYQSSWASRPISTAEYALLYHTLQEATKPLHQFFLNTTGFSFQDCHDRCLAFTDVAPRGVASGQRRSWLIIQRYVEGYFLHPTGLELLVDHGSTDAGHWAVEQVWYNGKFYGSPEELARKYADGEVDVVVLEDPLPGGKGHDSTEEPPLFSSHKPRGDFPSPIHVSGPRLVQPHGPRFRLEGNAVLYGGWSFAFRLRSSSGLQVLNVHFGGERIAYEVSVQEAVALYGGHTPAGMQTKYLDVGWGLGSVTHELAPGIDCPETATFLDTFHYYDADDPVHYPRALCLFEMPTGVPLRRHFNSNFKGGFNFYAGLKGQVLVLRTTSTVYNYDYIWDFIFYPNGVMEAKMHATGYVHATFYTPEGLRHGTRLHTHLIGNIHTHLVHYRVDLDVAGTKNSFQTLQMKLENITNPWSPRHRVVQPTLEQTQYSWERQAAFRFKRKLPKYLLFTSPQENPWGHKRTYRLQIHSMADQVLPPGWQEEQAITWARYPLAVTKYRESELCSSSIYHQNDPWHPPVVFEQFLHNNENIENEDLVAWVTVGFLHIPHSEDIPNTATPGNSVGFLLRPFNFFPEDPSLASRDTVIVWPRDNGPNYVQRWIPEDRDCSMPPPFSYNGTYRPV
# ASSAY: AOC1 biochemical assay (Amplex Red)
# STUDY_CONDITIONS: read-out: AOC1 IC50
Each record here notes measured IC50.
API: value field is a number in nM; no unit string.

Some molecules with known IC50 results, for comparison:
CC1(C(N)=O)CCN(S(=O)(=O)c2ccc(OC/C(=C\F)CN)nc2)CC1 [Example 49] :: 553
NC/C(=C/F)COc1ccc(S(=O)(=O)N2CC[C@H](C(N)=O)C2)cn1 [Example 39] :: 909
NC/C(=C/F)COc1ccc(S(=O)(=O)N2C[C@H]3C[C@@]3(C(=O)N3CCOCC3)C2)cn1 [Example 22] :: 13700

Value of IC50 reported for the molecule COCCNC(=O)CC1CCN(S(=O)(=O)c2ccc(OC/C(=C\F)CN)nc2)CC1 [Example 54] is 10500

IC50 reading for CNC(=O)[C@H]1CCN(S(=O)(=O)c2ccc(OC/C(=C\F)CN)nc2)C1 [Example 11] : 2550

Memo: CC(=O)NCC1CCN(S(=O)(=O)c2ccc(OC/C(=C\F)CN)nc2)CC1 [Example 28] , reported IC50: 3740

The reported IC50 of the molecule NC/C(=C/F)COc1ccc(S(=O)(=O)N2C[C@@H]3[C@H](C2)[C@H]3C(=O)O)cn1 [Example 45] was 37600

Note to self: IC50 recorded for NC/C(=C/F)COc1ccc(S(=O)(=O)N2CCC[C@@H]2C(N)=O)cn1 [Example 18] was 1220

Lab note: measured IC50 of COC1CN(S(=O)(=O)c2ccc(OC/C(=C\F)CN)nc2)C1 [Example 33] was 1140

Per the records, this molecule ( CC1(C(=O)NC2CC2)CCN(S(=O)(=O)c2ccc(OC/C(=C\F)CN)nc2)CC1 [Example 56] ) has IC50 equal to 11500

Value of IC50 reported for the molecule CN(C)C(=O)CC1CCN(S(=O)(=O)c2ccc(OC/C(=C\F)CN)nc2)CC1 [Example 19] is 12500

Provenance of the data: patent US12213970B2
